Where do the numbers come from? From patent US20230203043A1.

# System: Acinetobacter baumannii ATCC17961
# testDescription: Antimicrobial susceptibility testing: 90% growth inhibitory concentration (IC90) determination in Iso-Sensitest broth, OD600 growth
# Type: cell-based
# testSettings: Acinetobacter baumannii, ATCC17961, 16 h, strain ATCC 17961, OD600 growth over 16 h, read-out: A. baumannii ATCC 17961 IC90
Counter-ions that a name gives are not always drawn.
Answer each item with its documented IC90.
Include the unit after the number when you answer.

Some compounds with known IC90 results, for comparison:
N#CCn1cc(-c2cnc3c(Nc4ccc(C(=O)N5CCN(C(=O)[C@H]6CC[C@@H](N)C6)CC5)c(F)c4)nccn23)c(C(F)(F)F)n1 [Example 807, hydrochloride] :: 310 nM
NCCCCCCNC(=O)c1ccc(Nc2nccn3c(-c4cn(CC(F)F)nc4C(F)(F)F)cnc23)cc1Cl [Example 826, hydrochloride] :: 110 nM

# map each compound to its IC90
1. CCc1cc(Nc2nccn3c(-c4c[nH]nc4C(F)(F)F)cnc23)ccc1C(=O)NCCNC(=O)[C@H]1C[C@H](N)C1
2. C#CCn1cc(-c2cnc3c(Nc4ccc(C(=O)NCCOC[C@@H](C)N)c(CC)c4)nccn23)c(C(F)(F)F)n1

Return:
["476 nM", "102 nM"]
